Ref: patent US8846686B2

Kindly supply the reported pKi values for the records listed here.
- test_system: full-length ATR (Homo sapiens)
- Construct: Assays are carried out at 25° C. in the presence of 5 nM full-length ATR
- Sequence (Q13535 whole entry): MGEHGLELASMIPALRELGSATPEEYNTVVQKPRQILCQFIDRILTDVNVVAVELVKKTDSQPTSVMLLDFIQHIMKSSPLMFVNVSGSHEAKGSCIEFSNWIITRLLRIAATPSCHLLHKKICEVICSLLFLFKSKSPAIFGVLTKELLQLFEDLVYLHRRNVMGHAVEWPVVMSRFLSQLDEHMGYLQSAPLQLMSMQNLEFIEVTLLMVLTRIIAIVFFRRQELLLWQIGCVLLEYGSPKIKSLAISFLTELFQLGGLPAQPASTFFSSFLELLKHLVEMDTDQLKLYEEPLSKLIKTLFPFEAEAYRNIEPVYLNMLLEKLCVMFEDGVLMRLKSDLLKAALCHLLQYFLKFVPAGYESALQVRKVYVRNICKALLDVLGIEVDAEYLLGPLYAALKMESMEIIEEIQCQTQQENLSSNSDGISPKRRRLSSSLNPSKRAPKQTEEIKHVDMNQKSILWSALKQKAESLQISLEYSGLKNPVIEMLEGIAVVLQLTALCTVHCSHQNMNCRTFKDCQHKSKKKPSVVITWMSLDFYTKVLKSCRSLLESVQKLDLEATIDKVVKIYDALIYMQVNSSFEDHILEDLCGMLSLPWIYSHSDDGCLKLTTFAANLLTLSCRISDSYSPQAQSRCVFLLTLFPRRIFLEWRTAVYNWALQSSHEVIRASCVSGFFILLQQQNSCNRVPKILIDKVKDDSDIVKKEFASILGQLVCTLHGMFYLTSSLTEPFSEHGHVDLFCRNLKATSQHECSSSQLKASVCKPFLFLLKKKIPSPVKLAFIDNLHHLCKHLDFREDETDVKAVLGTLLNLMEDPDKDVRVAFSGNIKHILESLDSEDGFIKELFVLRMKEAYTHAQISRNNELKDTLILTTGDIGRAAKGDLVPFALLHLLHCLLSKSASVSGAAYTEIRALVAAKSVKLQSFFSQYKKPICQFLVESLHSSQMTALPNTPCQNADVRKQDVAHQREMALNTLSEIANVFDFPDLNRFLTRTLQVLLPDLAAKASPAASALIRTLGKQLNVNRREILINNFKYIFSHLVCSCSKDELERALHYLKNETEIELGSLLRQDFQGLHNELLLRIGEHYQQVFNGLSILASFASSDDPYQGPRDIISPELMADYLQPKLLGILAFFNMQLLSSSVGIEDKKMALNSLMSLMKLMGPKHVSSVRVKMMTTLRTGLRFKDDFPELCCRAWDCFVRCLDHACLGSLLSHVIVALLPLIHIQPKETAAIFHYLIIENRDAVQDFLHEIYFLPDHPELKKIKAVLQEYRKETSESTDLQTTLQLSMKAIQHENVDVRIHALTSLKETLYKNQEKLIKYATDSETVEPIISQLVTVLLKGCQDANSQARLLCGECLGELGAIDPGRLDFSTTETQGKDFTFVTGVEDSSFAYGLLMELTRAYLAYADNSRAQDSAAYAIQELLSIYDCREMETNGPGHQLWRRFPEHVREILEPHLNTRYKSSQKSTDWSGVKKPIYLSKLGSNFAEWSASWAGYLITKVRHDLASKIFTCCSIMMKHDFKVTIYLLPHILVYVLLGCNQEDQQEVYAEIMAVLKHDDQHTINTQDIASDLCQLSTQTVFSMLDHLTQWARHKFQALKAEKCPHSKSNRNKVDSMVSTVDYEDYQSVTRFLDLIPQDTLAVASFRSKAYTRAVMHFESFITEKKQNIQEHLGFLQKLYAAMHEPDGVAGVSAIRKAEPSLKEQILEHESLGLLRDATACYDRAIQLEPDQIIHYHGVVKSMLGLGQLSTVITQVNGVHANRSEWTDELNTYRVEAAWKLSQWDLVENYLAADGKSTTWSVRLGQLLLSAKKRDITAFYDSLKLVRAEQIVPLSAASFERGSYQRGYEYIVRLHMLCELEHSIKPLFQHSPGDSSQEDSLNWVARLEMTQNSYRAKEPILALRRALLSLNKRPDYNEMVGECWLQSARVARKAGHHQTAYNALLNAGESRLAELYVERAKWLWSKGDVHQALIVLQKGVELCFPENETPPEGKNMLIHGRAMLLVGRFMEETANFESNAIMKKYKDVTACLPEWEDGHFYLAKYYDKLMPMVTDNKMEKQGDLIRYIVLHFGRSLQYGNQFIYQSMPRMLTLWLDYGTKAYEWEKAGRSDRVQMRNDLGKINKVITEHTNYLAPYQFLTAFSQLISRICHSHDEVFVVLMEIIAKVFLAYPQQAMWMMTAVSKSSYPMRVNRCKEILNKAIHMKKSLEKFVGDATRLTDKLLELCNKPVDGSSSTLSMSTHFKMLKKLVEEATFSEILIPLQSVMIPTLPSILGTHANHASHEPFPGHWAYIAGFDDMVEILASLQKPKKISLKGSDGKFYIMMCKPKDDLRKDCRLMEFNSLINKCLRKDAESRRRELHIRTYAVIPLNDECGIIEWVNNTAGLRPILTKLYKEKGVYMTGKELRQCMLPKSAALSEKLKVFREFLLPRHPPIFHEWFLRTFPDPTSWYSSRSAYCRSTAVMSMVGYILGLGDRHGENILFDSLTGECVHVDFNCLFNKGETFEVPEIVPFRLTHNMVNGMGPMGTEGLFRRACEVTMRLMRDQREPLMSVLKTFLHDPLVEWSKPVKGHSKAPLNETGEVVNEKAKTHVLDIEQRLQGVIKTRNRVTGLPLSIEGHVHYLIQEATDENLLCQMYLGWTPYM
- run_description: ATR inhibition assay (radioactive-phosphate incorporation)
- study_conditions: Ki(app), 5 nM full-length ATR, 10 μM ATP
// field semantics: pKi = negative decimal log of concentration (mol/L)

Prompt: Entry under review: CC(C)S(=O)(=O)c1ccc(-c2cnc(N)c(-c3cc(-c4ccc(CN[C@H]5CCOC5)cc4)no3)n2)cc1 [P-110 (S), reference compound] . Reported pKi?
Completion: 9.59

Prompt: Dear colleague, I am looking for the recorded pKi of the following molecule: CC(C)S(=O)(=O)c1ccc(-c2cnc(N)c(-c3cc(-c4ccc(CNC5CCOCC5)cc4)no3)n2)cc1
Completion: 9.85

Prompt: Endpoint output: pKi of [2H]C([2H])([2H])C([2H])(C([2H])([2H])[2H])S(=O)(=O)c1ccc(-c2cnc(N)c(-c3cc(-c4ccc(CNC5CCOCC5)cc4)no3)n2)cc1 . Value?
Completion: 9.98

Prompt: Which measured pKi value corresponds to CC(C)S(=O)(=O)c1ccc(-c2cnc(N)c(-c3cc(-c4ccc(CN[C@@H]5CCOC5)cc4)no3)n2)cc1 [P-110 (R), reference compound] ?
Completion: 9.54
